meta.source: PubChem BioAssay (NCATS)

- Test system: HaCat
- ASSAY_TEXT: Cytotoxic Profiling of Annotated Libraries Using Quantitative High-Throughput Screening (AID 1296008); further: on the % scale 0 is the no-effect control and ±100 the full control effect; nearly all actives have a fitted effect of over 60% in size
- CONDITION_LABEL: Five cell lines viability, CellTiter-Glo ATP luminescence, 48-72 h; hits give low values
Records with an inconclusive call do not appear. Active and inactive are the calls of the source. The call rests on the fitted dose curve; in most records, active means well fitted inhibition curve with a large enough effect; inconclusive means small, poorly fitted or top-dose-only effect; inactive means flat fitted curve, though single readings scatter.
So I've got a bunch of compounds here, and I need their max response values.

Item: N#CC(c1ccnc(OCc2ccc(CN3CCOCC3)cc2)n1)c1nc2ccccc2s1 (configuration not stated) | System: HaCat | max response: 0.847% (inactive)

Item: CC1(C)CCCC2(C)C1C(O)C=C(CO)C2(O)CO (configuration not stated) | System: HaCat | max response: -4.77% (inactive)

Item: CC(NC(=O)CCc1nc2ccccc2c(=O)[nH]1)c1ccccc1 (configuration not stated) | System: HaCat | max response: -2.07% (inactive)

Item: C=C1CCC2C(C)(C(=O)OC)CCCC2(C)C1CCC(C)CC(=O)O (configuration not stated) | System: HaCat | max response: -22.8% (inactive)

Item: CCC(COC)n1nnc2c(Nc3ccc(OC)cc3C)nc(C)cc21 (configuration not stated) | System: HaCat | max response: -0.414% (inactive)

Item: CC(=O)N[C@H]1[C@H](O[C@H]2CC[C@@]3(C)C(CC[C@]4(C)C3CC=C3[C@@H]5CC(C)(C)CC[C@]5(C(=O)OC5OCC(O)C(O)C5O)CC[C@]34C)C2(C)C)O[C@H](COC2OC(C)C(O)C(OC3OC(C)C(O)C(O)C3O)C2O)[C@@H](O)[C@@H]1O (some centres not stated) | System: HaCat | max response: 2.89% (inactive)

Item: N#C[C@@H]1C[C@H](F)CN1C(=O)CNC1[C@H]2CN(C(=O)c3ccc(F)cc3)C[C@@H]12 (some centres not stated) | System: HaCat | max response: -7.89% (inactive)

Item: C=C[C@]1(C)C=C2CCC3C(C)(CCC[C@@]3(C)C(=O)O)C2CC1 (some centres not stated) | System: HaCat | max response: -0.617% (inactive)

Item: "CC(C)(C)Nc1nc(Nc2ccc(C(N)=O)cc2)cc(N)c1C#N" | System: HaCat | max response: -5.65% (inactive)

Item: C=C1CCCC2(C)CC3(OC)OC(=O)C(C)=C3CC12 (configuration not stated) | System: HaCat | max response: 2.5% (inactive)

Item: "CCCC(=O)C1CCN(c2ncnc3c2CN(C(=O)c2ccc(-c4ccccc4)cc2)CC3)CC1" | System: HaCat | max response: -5.72% (inactive)

Item: C=C1C(=O)OC2/C=C(\CO)CC/C=C(\C=O)CC(OC(=O)CC(C)C)C12 (configuration not stated) | System: HaCat | max response: -10.5% (inactive)

Item: "CC(C)(C)NS(=O)(=O)c1cncc(-c2cc(F)c3nc(N)nn3c2)c1" | System: HaCat | max response: -25.2% (inactive)

Item: "CC[C@H]1OC(=O)[C@H](C)[C@@H](O[C@H]2C[C@@](C)(OC)[C@@H](O)[C@H](C)O2)[C@H](C)[C@@H](O[C@@H]2O[C@H](C)C[C@H](N(C)C)[C@H]2O)[C@](C)(O)C[C@@H](C)C(=O)[C@H](C)[C@H]2OC(=O)O[C@@]21C" | System: HaCat | max response: -4.77% (inactive)

Item: "OC/C=C/c1ccc(O[C@@H]2O[C@H](CO)[C@@H](O)[C@H](O)[C@H]2O)cc1" | System: HaCat | max response: 4.35% (inactive)

Item: "C=C[C@@](C)(O)CC/C=C(\C)C(=O)O[C@@H]1[C@@H]2O[C@]2(C)[C@H]2[C@H](O[C@@H]3O[C@H](CO)[C@@H](O)[C@H](O)[C@H]3O)OC=C[C@@]12O" | System: HaCat | max response: -5.52% (inactive)

Item: C/C(=C\CCC(C)CCO)C(=O)OC1(C)CCC2C(C(=O)O)=COC(OC3OC(CO)C(O)C(O)C3O)C21 (configuration not stated) | System: HaCat | max response: -20.6% (inactive)

====

- ASSAY_TEXT: P-glycoprotein substrates identified in KB-8-5-11 adenocarcinoma cell line, qHTS therapeutic library screen (AID 1346987); further: on the % scale 0 is the no-effect control and ±100 the full control effect; nearly all actives have a fitted effect of over 65% in size
- CONDITION_LABEL: KB-8-5-11 (P-gp overexpressing) viability, CellTiter-Glo, 72 h; series mostly up to 44.5 µM
Inconclusive results are not listed. Activity calls are given as the source filed them. Calls come from the whole dose curve; as a rule, active = well fitted inhibition curve with a large enough effect; inconclusive = small, poorly fitted or top-dose-only effect; inactive = flat fitted curve, though single readings scatter.
So I've got a bunch of molecules here, and I need their activity change, negative = cytotoxicity values.

Entry C[C@@H]1O[C@@H](O[C@H]2[C@H](O)[C@@H](O[C@@H]3O[C@H](CO)[C@@H](O)[C@H](O[C@@H]4O[C@H](CO)[C@@H](O)[C@H](O)[C@H]4O)[C@H]3O)[C@H](O[C@H]3CC[C@@]4(C)C(=CC[C@@H]5C4CC[C@@]4(C)C5C[C@@H]5OC6(CC[C@@](C)(CO[C@@H]7O[C@H](CO)[C@@H](O)[C@H](O)[C@H]7O)O6)[C@@H](C)[C@@H]54)C3)O[C@@H]2CO)[C@H](O)[C@H](O)[C@H]1O (some centres not stated) ; activity change, negative = cytotoxicity = 3.17% [at 9.29 µM] (inactive)

Entry CC1(C)CC[C@]2(CO[C@@H]3O[C@H](CO)[C@@H](O)[C@H](O)[C@H]3O)[C@@H](O)C[C@]3(C)C(=CCC4[C@@]5(C)CC[C@H](O[C@@H]6O[C@H](CO[C@@H]7O[C@H](CO[C@@H]8OC[C@@H](O)[C@H](O)[C@H]8O)[C@@H](O)[C@H](O)[C@H]7O)[C@@H](O)[C@H](O)[C@H]6O)C(C)(C)C5CC[C@]43C)[C@@H]2C1 (some centres not stated) ; activity change, negative = cytotoxicity = 1.76% [at 9.29 µM] (inactive)

====

- Test system: PA-1
- ASSAY_TEXT: Primary qHTS to identify gynecologic anti-cancer compounds using libraries of approved drugs and bioactive compounds (AID 1345084); further: nearly all actives have a fitted effect of over 55% in size
- CONDITION_LABEL: Gynecologic cancer cell panel viability, ATPlite luminescence, 48 h; series mostly up to 57.5 µM
Records with an inconclusive call do not appear. Activity calls are given as the source filed them. Calls follow the shape of the dose curve; as a rule, active = well fitted cell-killing curve with a large enough effect; inconclusive = small, poorly fitted or top-dose-only effect, or effect the other way; inactive = flat fitted curve, though single readings scatter.
Parameter call: string, one of yes (1) (active), no (0) (inactive)

I would be grateful if you could indicate the recorded call for "CCOc1cc(C)c(Cl)cc1S(=O)(=O)n1cnc2ccccc21" . no (0)

I would be grateful if you could indicate the recorded call for CC1=CC(=O)C2C(C)(C)CCC[C@]2(C)[C@H]1CO (stereo not given in full) . no (0)

I would be grateful if you could indicate the recorded call for "C=C1C[C@]23C[C@H]1CC[C@H]2C1=C[C@H]2OC(=O)[C@@](C)([C@H]1[C@@H]3C(=O)O)[C@H]2O" . no (0)

I would be grateful if you could indicate the recorded call for "O=C(OC[C@@]1(O)CO[C@@H](O[C@H]2[C@H](Oc3ccc(O)cc3)O[C@H](CO)[C@@H](O)[C@@H]2O)[C@@H]1O)c1ccc(O)cc1" . no (0)

I would be grateful if you could indicate the recorded call for C=C1C(=O)OC2CC3(C)C(CC12)C(C)=CC(O)C3OC(C)=O (stereo not given) . no (0)

I would be grateful if you could indicate the recorded call for CC(O)(CC(=O)O)CC(=O)OCc1ccc(O[C@@H]2O[C@H](CO)[C@@H](O)[C@H](O)[C@H]2O)cc1 (stereo not given in full) . no (0)

I would be grateful if you could indicate the recorded call for CC(=O)CCC1=C(C)C(O[C@@H]2O[C@H](CO)[C@@H](O)[C@H](O)[C@H]2O)C(O)CC1(C)C (stereo not given in full) . no (0)

I would be grateful if you could indicate the recorded call for COc1ccc(-c2ccc3c(N4CCOCC4)nc(N4CC(C)OC(C)C4)nc3n2)cc1CO (stereo not given) . yes (1)

I would be grateful if you could indicate the recorded call for "OCCc1ccc(O[C@@H]2O[C@H](CO)[C@@H](O)[C@H](O)[C@H]2O)cc1" . no (0)

I would be grateful if you could indicate the recorded call for "C=C(C(=O)O)[C@H]1C[C@]2(C)[C@@H](O)CC[C@]23O[C@H]1C[C@@H]3C" . no (0)

I would be grateful if you could indicate the recorded call for C=C1CCCC2(C)CC3(OC)OC(=O)C(C)=C3CC12 (stereo not given) . no (0)

I would be grateful if you could indicate the recorded call for "CC1(C)C[C@H](O)C[C@@]2(C)OC(=O)C=C12" . no (0)

I would be grateful if you could indicate the recorded call for CC(=O)OC1CC2(C)C3=CCC4(C)C5C(O)C(O)C(C(C)C)C5(C)CCC4(C)C3CCC2C(C)(C)C1OC1OC(CO)C(O)C(O)C1O (stereo not given) . no (0)

I would be grateful if you could indicate the recorded call for "Cc1cc(OCc2nc(-c3ccccc3Cl)cs2)ccc1OCC(=O)O" . no (0)

I would be grateful if you could indicate the recorded call for "O=c1[nH]ccc2cc(OC3CCNCC3)ccc12" . no (0)

I would be grateful if you could indicate the recorded call for CC(=O)N1CCc2ccc(O)c(OC3OC(COC4OCC(O)(CO)C4O)C(O)C(O)C3O)c2C1Cc1ccc(O)cc1 (stereo not given) . no (0)

I would be grateful if you could indicate the recorded call for COC1=CC(=O)CC(C)C12Oc1cc(OC)cc(O)c1C2=O (stereo not given) . no (0)

I would be grateful if you could indicate the recorded call for CN1c2ccccc2C(=O)N2CCC3c4ccccc4NC3C21 (stereo not given) . yes (1)

I would be grateful if you could indicate the recorded call for "C=CC(=O)N1CCN(C(=O)CNc2cc(I)c(Cl)cc2O)CC1" . no (0)

I would be grateful if you could indicate the recorded call for CC(C)=CCC[C@](C)(O)[C@H]1CC[C@]2(C)[C@@H]1[C@H](O)CC1[C@@]3(C)CC[C@H](O)C(C)(C)C3[C@@H](O[C@@H]3O[C@H](CO)[C@@H](O)[C@H](O)[C@H]3O[C@@H]3OC[C@@H](O)[C@H](O)[C@H]3O)C[C@]12C (stereo not given in full) . no (0)

I would be grateful if you could indicate the recorded call for "C=C1C[C@]23C[C@H]1CC[C@H]2[C@@]12CC[C@H](O)[C@@](C)(C(=O)O1)[C@H]2[C@@H]3C(=O)O" . no (0)

I would be grateful if you could indicate the recorded call for "C[C@@H](O)[C@H](NC(=O)c1ccc(C#Cc2ccc(CN3CCOCC3)cc2)cc1)C(=O)NO" . no (0)

I would be grateful if you could indicate the recorded call for C=C1C[C@@]23CCC4[C@@](C)(CCC[C@@]4(C)C(=O)OC)C2CC[C@@H]1C3 (stereo not given in full) . no (0)

I would be grateful if you could indicate the recorded call for "O=S(=O)(NCC1CC1)c1ccc(Nc2nccc(N3CCCc4cc(O)ccc43)n2)cc1" . yes (1)

I would be grateful if you could indicate the recorded call for CCC(O)(C(=O)OCc1ccccc1NC(=O)CCC(=O)O)C(C)O (stereo not given) . no (0)

I would be grateful if you could indicate the recorded call for "CC1(C)[C@@H](O)CC[C@]2(C)[C@H]3CC=C4[C@@H]5C[C@](C)(C(=O)O)CC[C@]5(C)CC[C@@]4(C)[C@]3(C)CC[C@@H]12" . no (0)

I would be grateful if you could indicate the recorded call for "O=C(O)[C@H](Cc1ccc(Nc2nccc3ccncc23)cc1)NC1=C(Br)C(=O)C12CCCCC2" . no (0)

I would be grateful if you could indicate the recorded call for CC1=C2C(O)C(=O)OC(c3ccoc3)C2(C)CCC1O (stereo not given) . no (0)

I would be grateful if you could indicate the recorded call for CC(=O)OC/C=C(\C)C(CC1C(C)=C(OC(C)=O)C(=O)C2C(C)(C)C(O)CCC12C)OC(C)=O (stereo not given) . no (0)

I would be grateful if you could indicate the recorded call for C=C1C(O)C(O)C2(CC3C(C)=CCC4C(C)(CO)CCCC34C)OC2C1O (stereo not given) . no (0)

I would be grateful if you could indicate the recorded call for COC(=O)C1=CO[C@@H](O[C@@H]2O[C@H](CO)[C@@H](O)[C@H](O)[C@H]2O)[C@H]2[C@@H]1CC(OC)O[C@@H]2C (stereo not given in full) . no (0)

I would be grateful if you could indicate the recorded call for COC(=O)C1=CO[C@@H](O[C@@H]2O[C@H](CO)[C@@H](O)[C@H](O)[C@H]2O)C2C1C(=O)C[C@H]2C (stereo not given in full) . no (0)

I would be grateful if you could indicate the recorded call for "COc1cc2c(c(OC)c1CC=C(C)C)C[C@H](c1ccc(O)cc1O)CO2" . no (0)

I would be grateful if you could indicate the recorded call for "CC(=O)O[C@@H]1c2c(C)coc2C(=O)[C@@]23O[C@@H]2CC[C@H](C)[C@@]13C" . no (0)

I would be grateful if you could indicate the recorded call for COc1ccc2cc(C(C)C(=O)Oc3ccc(C(N)=S)cc3)ccc2c1 (stereo not given) . no (0)
